All figures here come from patent US11352350B2.

Items are presented alongside their recorded IC50.
# Tested on: OCI-LY10
# assay explanation: CTG Cell Viability Assay - OCI-LY10
# Assay type: cell-based, human
# experimental context: Homo sapiens, OCI-Ly10, 96 h, OCI-LY10, 4 days; read-out: CTG Cell Viability Assay - OCI-LY10: Average external-IC50

Q: Please give the measured IC50 for this compound: Cn1c(=O)n(C2CCC(=O)NC2=O)c2ccc(CCCOC3CCN(C[C@H]4CC[C@H](n5cc(NC(=O)c6cnn7ccc(N8CCNCC8)nc67)c(C(F)F)n5)CC4)CC3)cc21 (some centres unmarked) [I-162]
Result: > 1000 nM

Q: Please give the measured IC50 for this compound: Cn1c(=O)n([C@@H]2CCC(=O)NC2=O)c2cccc(CCCOC3CCN(C[C@H]4CC[C@H](n5cc(NC(=O)c6cnn7ccc(N8CCOCC8)nc67)c(C(F)F)n5)CC4)CC3)c21 [I-311]
Result: > 1000 nM

Q: Please give the measured IC50 for this compound: C[C@@H](C#Cc1cccc2c1n(C)c(=O)n2C1CCC(=O)NC1=O)OC1CCN(C[C@H]2CC[C@H](n3cc(NC(=O)c4cnn5ccc(N6C[C@H]7C[C@@H]6CO7)nc45)c(C(F)F)n3)CC2)CC1 (some centres unmarked) [I-544]
Result: > 1000 nM

Q: Please give the measured IC50 for this compound: CN1C(=O)C(C2CCC(=O)NC2=O)c2cccc(CCCOC3CCN(C[C@H]4CC[C@H](n5cc(NC(=O)c6cnn7ccc(NCCC(C)(C)O)nc67)c(C(F)F)n5)CC4)CC3)c21 (some centres unmarked) [I-288]
Result: > 1000 nM

Q: Please give the measured IC50 for this compound: Cn1c(=O)n(C2CCC(=O)NC2=O)c2cccc(CCCN3CCO[C@@H](CNC[C@H]4CC[C@H](n5cc(NC(=O)c6coc(-c7ccnc(NCC8CC8)c7)n6)c(C(F)F)n5)CC4)C3)c21 (some centres unmarked) [I-38]
Result: < 50 nM

---

# study target: IRAK4 (Homo sapiens (Human), UniProt Q9NWZ3)
# Sequence (Q9NWZ3 whole entry): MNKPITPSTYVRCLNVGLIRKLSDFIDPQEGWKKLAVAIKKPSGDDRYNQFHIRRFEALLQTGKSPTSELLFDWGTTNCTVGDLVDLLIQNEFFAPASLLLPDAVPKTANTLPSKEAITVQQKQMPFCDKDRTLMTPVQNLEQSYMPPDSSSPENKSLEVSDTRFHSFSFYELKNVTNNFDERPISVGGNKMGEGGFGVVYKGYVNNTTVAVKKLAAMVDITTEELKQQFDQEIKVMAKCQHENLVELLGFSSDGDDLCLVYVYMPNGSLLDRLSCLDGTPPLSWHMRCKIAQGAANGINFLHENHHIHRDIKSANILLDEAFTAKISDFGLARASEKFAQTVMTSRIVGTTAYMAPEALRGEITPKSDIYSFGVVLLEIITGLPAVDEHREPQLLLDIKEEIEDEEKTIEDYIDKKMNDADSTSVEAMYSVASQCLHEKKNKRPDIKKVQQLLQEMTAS
# assay explanation: IRAK4 degradation in OCI-LY10 (DC50)
# Type: cell-based
# experimental context: read-out: IRAK4 Degradation in OCI-LY10, DC50
Items are presented alongside their recorded DC50.
State the answer as a number, implicitly in nM.

CC[C@@H]1CC(=O)N[C@@H]1COc1ncc(C#C[C@H]2CC[C@H](CN3CCC(OCCCc4cccc5c4n(C)c(=O)n5C4CCC(=O)NC4=O)CC3)CC2)c2cc(C(N)=O)c(OC)cc12 (stereo partly shown) [I-229]
26

Q: Please give the measured DC50 for this compound: Cn1c(=O)n([C@H]2CCC(=O)NC2=O)c2cccc(CCCOC3CCN(CC4CCC(n5cc(NC(=O)c6cnn7ccc(N8CCOCC8)nc67)c(C(F)F)n5)CC4)CC3)c21 (stereo partly shown) [I-257]
Result: 5

Q: Please give the measured DC50 for this compound: CN(C[C@H]1CC[C@H](n2cc3cc(NC(=O)c4cccc(C(F)(F)F)n4)c(C(C)(C)O)cc3n2)CC1)C1CCN(Cc2cccc3c2n(C)c(=O)n3C2CCC(=O)NC2=O)CC1 (stereo partly shown) [I-191]
Result: 4

Q: Please give the measured DC50 for this compound: CN(C[C@H]1CC[C@H](n2cc(NC(=O)c3coc(-c4ccnc(NCC5CC5)c4)n3)c(C(F)F)n2)CC1)C1CCN(Cc2cccc3c2n(C)c(=O)n3C2CCC(=O)NC2=O)CC1 (stereo partly shown) [I-75]
Result: 8

---

# study target: IRAK4 (Homo sapiens (Human))
# assay explanation: IRAK4 MSD degradation in OCI-LY10
# Assay type: cell-based
# experimental context: OCI-LY10, 24 hrs, MSD; read-out: IRAK4 MSD degradation in OCI-LY10 at 24 hrs: Average external-Abs DC50
measured endpoint: DC50

CC[C@@H]1[C@H](F)C(=O)N[C@@H]1COc1ncc(C#C[C@H]2CC[C@H](CN(C)C3CCN(Cc4cccc5c4n(C)c(=O)n5C4CCC(=O)NC4=O)CC3)CC2)c2cc(C(N)=O)c(OC)cc12 (stereo partly shown)
< 10 nM
Cn1c(=O)n(C2CCC(=O)NC2=O)c2cccc(CCCOCCC(=O)N3CCN([C@H]4CC[C@H](Nc5ncnc6ccc(C#N)cc56)CC4)CC3)c21 (stereo partly shown)
> 1000 nM
CN(CCCOCCCc1cccc2c1n(C)c(=O)n2C1CCC(=O)NC1=O)C[C@H]1CC[C@H](n2cc(NC(=O)c3cnn4ccc(N5CCOCC5)nc34)c(C(F)F)n2)CC1 (stereo partly shown)
< 10 nM

// moving on: another record for DC50
Q: Please give the measured DC50 for this compound: CN(CCCOCCCNc1cccc2c1C(=O)N(C1CCC(=O)NC1=O)C2=O)C[C@H]1CC[C@H](n2cc(NC(=O)c3cnn4ccc(NCC5CC5)nc34)c(C(F)F)n2)CC1 (stereo partly shown)
Result: 10 to 100 nM

---

# study target: IRAK4 (Homo sapiens (Human), UniProt Q9NWZ3)
# assay explanation: IRAK4 MSD degradation in OCI-LY10
# Assay type: cell-based
# experimental context: OCI-LY10, 24 hrs, MSD; read-out: IRAK4 MSD degradation in OCI-LY10 at 24 hrs: Average external-Abs DC50
measured endpoint: DC50

CC[C@H]1C(COc2ncc(C#C[C@H]3CC[C@H](CN4CCC(OCCCc5cccc6c5c5cccnc5n6C5CCC(=O)NC5=O)CC4)CC3)c3cc(C(N)=O)c(OC)cc23)NC(=O)[C@H]1F (some centres unmarked)
10 to 100 nM
O=C1CCC(N2C(=O)c3ccnc(NCCCOC4CCN(Cc5ccc(-n6cc(NC(=O)c7cnn8ccc(N9CCOCC9)nc78)c(C(F)F)n6)cc5)CC4)c3C2=O)C(=O)N1 (centres unmarked)
10 to 100 nM
Cn1c(=O)n(C2CCC(=O)NC2=O)c2ccc(CCCOCCOCC(F)CNC(=O)c3cnc(Nc4ccc5cnccc5n4)cc3NC3CC3)cc21 (centres unmarked)
> 1000 nM
O=C1CCC(N2C(=O)c3cccc(OCCCOC4CCN(C[C@H]5CC[C@H](n6cc(NC(=O)c7cnn8ccc(N9CCOCC9)nc78)c(C(F)F)n6)CC5)CC4)c3C2=O)C(=O)N1 (some centres unmarked)
< 10 nM
CN(CCCOCCCNC(=O)c1ccc(CNCc2ccc(-c3ccc4c(cnn4CC4CC4)c3)cc2)cc1)C(=O)[C@H]1CC[C@H](n2cc(NC(=O)c3coc(-c4ccnc(NCC5CC5)c4)n3)c(C(F)F)n2)CC1
> 1000 nM
O=C1CCC(N2Cc3c(OCc4ccc(CN5CCN(C[C@H]6CC[C@H](n7cc(NC(=O)c8coc(-c9ccnc(NCC%10CC%10)c9)n8)c(C(F)F)n7)CC6)CC5)cc4)cccc3C2=O)C(=O)N1 (some centres unmarked)
> 1000 nM
CC[C@@H]1[C@H](F)C(=O)N[C@@H]1COc1ncc(C#C[C@H]2CC[C@H](CN(C)C3CCN(Cc4ccc5c(c4)n(C)c(=O)n5C4CCC(=O)NC4=O)CC3)CC2)c2cc(C(N)=O)c(OC)cc12 (some centres unmarked)
10 to 100 nM
O=C1CCC(N2Cc3c(NCCOCC4CCN(C[C@H]5CC[C@H](n6cc(NC(=O)c7cnn8ccc(N9C[C@H]%10C[C@@H]9CO%10)nc78)c(C(F)F)n6)CC5)CC4)cccc3C2=O)C(=O)N1 (some centres unmarked)
10 to 100 nM

Q: Please give the measured DC50 for this molecule: CN(CC1CCN(c2cccc3c2C(=O)N(C2CCC(=O)NC2=O)C3=O)CC1)C[C@H]1CC[C@H](n2cc3cc(NC(=O)c4cccc(C(F)(F)F)n4)c(C(C)(C)O)cc3n2)CC1 (some centres unmarked)
Result: 10 to 100 nM

Q: Please give the measured DC50 for this molecule: CN(CCCOCCCNc1cccc2c1C(=O)N(C1CCC(=O)NC1=O)C2=O)C[C@H]1CC[C@H](n2cc3cc(NC(=O)c4cccc(C(F)(F)F)n4)c(C(C)(C)O)cc3n2)CC1 (some centres unmarked)
Result: 10 to 100 nM

Q: Please give the measured DC50 for this molecule: CN(Cc1ccc(-n2cc(NC(=O)c3coc(-c4ccnc(NCC5CC5)c4)n3)c(C(F)F)n2)cc1)C1CCN(Cc2cccc3c2n(C)c(=O)n3C2CCC(=O)NC2=O)CC1 (centres unmarked)
Result: 10 to 100 nM

Q: Please give the measured DC50 for this molecule: Cn1c(=O)n(C2CCC(=O)NC2=O)c2cccc(CCCOC3CCN(C[C@H]4CC[C@H](n5cc(NC(=O)c6cnn7ccc(N8C(=O)N[C@@H]9[C@H]8CCCC9(F)F)nc67)c(C(F)F)n5)CC4)CC3)c21 (some centres unmarked)
Result: 10 to 100 nM

Q: Please give the measured DC50 for this molecule: O=C1CCC(N2C(=O)c3cccc(NCCCOC4CCN(Cc5ccc(-n6cc(NC(=O)c7cnn8ccc(N9C[C@H]%10CC9CO%10)nc78)c(C(F)F)n6)cc5)CC4)c3C2=O)C(=O)N1 (some centres unmarked)
Result: 10 to 100 nM

Q: Please give the measured DC50 for this molecule: CN(CCOCCCc1cccc2c1N(C)C(=O)C2C1CCC(=O)NC1=O)CC[C@H]1CC[C@H](n2cc(NC(=O)c3coc(-c4ccnc(NCC5CC5)c4)n3)c(C(F)F)n2)CC1 (some centres unmarked)
Result: 10 to 100 nM
